# Test system: DDR1
# Condition context: concentration: 1 μM, replicates: in singlicate; n = 1;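 also: KINOMEscan kinase panel screen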
Each entry gets Not fulfilled if its %Inh stays under 10%, and Fulfilled if its %Inh is 10% or above.

Record excerpt, results attached:
Clc1cccc(-c2nc(Nc3ccncc3)c3ccccc3n2)c1 = Fulfilled
NC(=O)c1sc(-n2cnc3ccccc32)cc1OCc1ccccc1F = Fulfilled
Nc1n[nH]c2nnc(-c3ccccc3)cc12 = Not fulfilled
CC(C)N1CCC(n2cnc(-c3ccc(F)cc3)c2-c2ccnc(N)n2)CC1 = Fulfilled
FC(F)(F)c1ccc(-c2cc(-c3c[nH]nc3-c3ccccn3)ccn2)cc1 = Not fulfilled

# next compound below
Decide: %Inh of FC(F)(F)c1cc(Nc2nccc(-c3c(-c4ccc(Cl)cc4)nn4ncccc34)n2)ccc1Cl >= 10%? Fulfilled

---

// values below are reported %Inh
# Test system: GRK4
# Condition context: concentration: 1 μM, replicates: in singlicate; n = 1

Nc1nc(-c2ccc3c(N)n[nH]c3c2)cc(N2CCC[C@@H](C(=O)Nc3ccccc3)C2)n1.O=C(O)C(F)(F)F.O=C(O)C(F)(F)F [GSK2288359] = 27%
N#Cc1ccc(Oc2ccc(Nc3ncnc4cc[nH]c34)cc2Cl)cc1 = 12%
O=C(NCCCN1CCCC1=O)c1cnc(NCc2cc(Cl)ccc2Cl)nc1NC1CCNCC1 = 0%
Fc1cccc(COc2ccc(Nc3ncnc4cc[nH]c34)cc2Cl)c1 = 35%
Cl.Cn1ccc(-c2cccc(Nc3ccnc4cc(-c5nccs5)ccc34)c2)n1 [GW525701] = 0%

What %Inh value was documented for this compound, Fc1ccc(-c2ncn(CCCNCc3ccccc3)c2-c2ccncc2)cc1 ? 12%

Same again, this time with CSc1ccc(NC2=C(c3ccccc3Cl)C(=O)NC2=O)cc1 [SB-342411] 3%

// repeat for Nc1n[nH]c2nnc(-c3ccccc3)cc12 [SB-517389] and report 0%

Subsequent entry: CC(C)N1CCC(n2cnc(-c3ccc(F)cc3)c2-c2ccnc(N)n2)CC1 [SB-223132] 4%

---

# Test system: FGFR2
# Condition context: concentration: 1 μM, replicates: in singlicate; n = 1
# key: entry, value: %Inh
Express it in %; write the number only.

Below, each entry is followed by its recorded %Inh result.
Nc1nc(-c2ccc3c(N)n[nH]c3c2)cc(N2CCC[C@@H](C(=O)Nc3ccccc3)C2)n1.O=C(O)C(F)(F)F.O=C(O)C(F)(F)F [GSK2288359] = 0
COc1cc2ncnc(Nc3ccc(OCc4ccccc4Br)c(Cl)c3)c2cc1OC.Cl [GI261590] = 38
CCc1nc(-c2cccc(N(C)S(=O)(=O)c3ccccc3)c2)c(-c2ccnc(Nc3ccc(N4CCN(C(C)=O)CC4)nc3)n2)s1 [GSK1645895] = 0
CC(C)(C)c1ccc(-n2cnc3c(N)ncnc32)cc1 [SKF-97263] = 20

Find the recorded %Inh belonging to Clc1cc(Nc2ncnc3cc[nH]c23)ccc1OCc1ccccn1 and report it. 8

Another compound to look at: Nc1nc(-c2cccnc2)c(-c2ccnc3ccccc23)s1 [GW684083] 20

Then this compound: COc1ccc(-c2oc3ncnc(N)c3c2-c2ccc(OC)cc2)cc1 [SB-589132] 3

Proceed to CCn1c(-c2ccncc2)nc2cnccc21 [SB-735216] 0

Another compound: CCCc1ccc(S(=O)(=O)NC2CCN(c3ccnc(Nc4ccc(OC)cc4)n3)C2)cc1 (stereo not drawn) [GSK1379737] 0

---

# Tested on: EPHA3
# Condition context: concentration: 1 μM, replicates: in singlicate; n = 1
Recorded endpoint: %Inh (%)
Give just the numeric value; % need not be written.

Please review the following examples before continuing.
Nc1nc(-c2cccnc2)c(-c2ccnc3ccccc23)s1 = 12
CNc1nccc(-c2c(-c3ccc(F)cc3)ncn2CCCN2CCOCC2)n1 = 0
Nc1nccc2scc(-c3ccc4c(c3)CCN4C(=O)Cc3cc(F)ccc3F)c12 = 0

Fill in the blank: the reported %Inh of CSc1ccc(NC2=C(c3ccccc3Cl)C(=O)NC2=O)cc1 is ____. 16

Now consider Fc1cccc(COc2ccc(Nc3ncnc4nn5ccccc5c34)cc2Cl)c1 . 0

Same thing, different compound: CCC(CC)(CC)n1cnc2c(N)ncnc21 11

// query: CNc1nccc(-c2c(-c3ccc(F)cc3)ncn2C2CCN(C)CC2)n1 2

Can you check COC(=O)c1c(-c2ccccc2)c2cc(Cl)ccc2c(=O)n1Cc1ccc(S(C)(=O)=O)cc1 next? 6

Another compound: N#Cc1ccc(Oc2ccc(Nc3ncnc4cc[nH]c34)cc2Cl)cc1 0

Record: FC(F)(F)c1ccc(-c2cc(-c3c[nH]nc3-c3ccccn3)ccn2)cc1 13

Next entry: FC(F)(F)c1ccc(-c2nn3ncccc3c2-c2ccnc(Nc3cccc(C(F)(F)F)c3)n2)cc1 0

Try the compound Nc1n[nH]c2nnc(-c3ccccc3)cc12 0

One more compound: CC(C)(C)OC(=O)NC1CCCN(c2cc(-c3ccc4c(N)n[nH]c4c3)nc(N)n2)C1 (stereo not drawn) 0

Another compound to look at: CSc1nn2c(=O)cc(N3CCOCC3)nc2n1Cc1cccc(Cl)c1Cl 15

Please give the result for CCc1nc(-c2cccc(C)c2)c(-c2ccnc(NC(=O)c3ccccc3)c2)s1 too. 4

Now the same for Nc1nc(-c2ccc3c(N)n[nH]c3c2)cc(N2CCC[C@@H](C(=O)Nc3ccccc3)C2)n1.O=C(O)C(F)(F)F.O=C(O)C(F)(F)F 0

And then Cc1ccc(O)cc1Nc1cc(C(F)(F)F)nc2ccc(-c3ccncc3)cc12 , what is it? 0

Please do the same for Clc1cc(Nc2ncnc3cc[nH]c23)ccc1OCc1ccccn1 as well. 0

---

%Inh reference
# System: RPS6KA5(Kin.Dom.2-C-terminal)
# Condition context: concentration: 1 μM, replicates: in singlicate; n = 1
Don't forget the unit after the number, please.

Cn1ccc2ncnc(Nc3ccc(Oc4cccc(Cl)c4)c(Cl)c3)c21 = 11%

Query: %Inh; subject: CS(=O)(=O)CCNCc1nc(-c2ccc3ncnc(Nc4ccc(OCc5cccc(F)c5)c(Cl)c4)c3c2)cs1.Cl 9%

Moving on to COc1ccc(Nc2nccc(N3CCC(NC(=O)Nc4ccc5c(c4)OCO5)C3)n2)cc1 (stereo not shown) 0%

One more compound: CNc1nccc(-c2c(-c3ccc(F)cc3)ncn2CCCN2CCOCC2)n1 17%

---

# Test system: PRKD1
# Condition context: concentration: 1 μM, replicates: in singlicate; n = 1
Readings of %Inh for the listed molecules
The reply should contain only the number, in %.

Some molecules with known %Inh results, for comparison:
FC(F)(F)c1cc(Nc2nccc(-c3c(-c4ccc(Cl)cc4)nn4ncccc34)n2)ccc1Cl [GW829351] = 0
CNc1nccc(-c2c(-c3ccc(F)cc3)ncn2C2CCN(C)CC2)n1 [SB-222903] = 0
Fc1cccc(COc2ccc(Nc3ncnc4sc(-c5ccc[nH]5)cc34)cc2Cl)c1 [GW707818] = 26

Look at this molecule and give its reported %Inh. Nc1nc(-c2ccc3c(N)n[nH]c3c2)cc(N2CCCCC2)n1 [GSK2228768] 0

Another molecule to check: FC(F)(F)c1ccc(-c2cc(-c3c[nH]nc3-c3ccccn3)ccn2)cc1 [GW599550] 23

Continue with Cl.c1ccc(Cn2ncc3cc(Nc4ncnc5ccccc45)ccc32)cc1 [GW273749] 0

Cool, now CSc1ccc(NC2=C(c3ccccc3Cl)C(=O)NC2=O)cc1 [SB-342411] 5

Also check O=C(NCCCN1CCCC1=O)c1cnc(NCc2cc(Cl)ccc2Cl)nc1NC1CCNCC1 3

One more molecule: COC(=O)c1cccc(NC(=O)NCCNc2ccnc(Nc3ccc(F)cc3)n2)c1 [GSK1379883] 21

Next up: COc1cc2ncnc(Nc3ccc(OCc4ccccc4Br)c(Cl)c3)c2cc1OC.Cl [GI261590] 4

Same question for COc1ccc(NC(=O)c2ccc(-c3cc(-c4nnc(C)o4)ccc3C)cc2)cc1 [GW595885] please. 2

Would you kindly repeat that for CC(C)(C)OC(=O)NC1CCCN(c2cc(-c3ccc4c(N)n[nH]c4c3)nc(N)n2)C1 (centres unmarked) [GSK2286096] ? 0

Again, but for O=C(Nc1ccccc1F)NC1CCN(c2ccnc(Nc3ccc(F)cc3)n2)C1 (centres unmarked) [GSK1379722] 0

Now give it for COc1ccc(-c2oc3ncnc(N)c3c2-c2ccc(OC)cc2)cc1 [SB-589132] too. 30

Moving on to FC(F)(F)c1ccc(-c2nn3ncccc3c2-c2ccnc(Nc3cccc(C(F)(F)F)c3)n2)cc1 [GW828205] 7

Ok, now COc1cc2c(Nc3cccc(NC(=O)c4ccccc4)c3)ncnc2cc1OCCCN1CCOCC1 [GSK223810] 2

Now try Cl.Cl.c1ccc(-c2cc3ccncc3cc2OC2CCNCC2)cc1 [GSK1122999] . 15

What do you have for Cl.O=S(=O)(c1cccc(F)c1)c1ccc(Nc2ncnc3cc(Br)sc23)cc1Cl [GSK306886] ? 7
